Tested on: Staphylococcus aureus
Test: Antimicrobial activity against glycopeptide-intermediate resistant Staphylococcus aureus L3798 by broth microdilution method
Assay type: functional
Active and inactive are the calls of the source. No cut-off for these calls is given here.
measured parameter: MIC

mol_smiles=CNc1cc(=O)c2c(O)c3c(=O)c4c5c(c(OC)cc4c(=O)c3cc2c1=O)C(=O)OC5 measured_parameter=MIC observed_measurement=Active
mol_smiles=CN[C@H](CC(C)C)C(=O)N[C@H]1C(=O)N[C@@H](CC(N)=O)C(=O)N[C@H]2C(=O)N[C@H]3C(=O)N[C@H](C(=O)N[C@H](C(=O)O)c4cc(O)cc(O)c4-c4cc3ccc4O)[C@H](O)c3ccc(c(Cl)c3)Oc3cc2cc(c3O[C@@H]2O[C@H](CO)[C@@H](O)[C@H](O)[C@H]2O[C@H]2C[C@](C)(N)[C@H](O)[C@H](C)O2)Oc2ccc(cc2Cl)[C@H]1O measured_parameter=MIC observed_measurement="8 µg/mL"
mol_smiles=O=C1OCc2c1c(O)cc1c(=O)c3cc4c(=O)c(O)cc(=O)c4c(O)c3c(=O)c21 measured_parameter=MIC observed_measurement="> 16 µg/mL"
mol_smiles=COc1cc2c(=O)c3cc4c(=O)c(OC)cc(=O)c4c(O)c3c(=O)c2c2c1C(=O)OC2 measured_parameter=MIC observed_measurement=Active

###

Test system: Pseudomonas aeruginosa
Assay: Antimicrobial activity against Pseudomonas aeruginosa ATCC 27853 by broth microdilution method
Type: functional
Active and inactive are the calls of the source. The calls are words filed in the database; no cut-off is given here.
measured parameter: MIC

mol_smiles=CNc1cc(=O)c2c(O)c3c(=O)c4c5c(c(OC)cc4c(=O)c3cc2c1=O)C(=O)OC5 measured_parameter=MIC observed_measurement=Active
mol_smiles=O=C1OCc2c1c(O)cc1c(=O)c3cc4c(=O)c(O)cc(=O)c4c(O)c3c(=O)c21 measured_parameter=MIC observed_measurement="> 16 µg/mL"
mol_smiles=COc1cc2c(=O)c3cc4c(=O)c(OC)cc(=O)c4c(O)c3c(=O)c2c2c1C(=O)OC2 measured_parameter=MIC observed_measurement=Active
mol_smiles=CN[C@H](CC(C)C)C(=O)N[C@H]1C(=O)N[C@@H](CC(N)=O)C(=O)N[C@H]2C(=O)N[C@H]3C(=O)N[C@H](C(=O)N[C@H](C(=O)O)c4cc(O)cc(O)c4-c4cc3ccc4O)[C@H](O)c3ccc(c(Cl)c3)Oc3cc2cc(c3O[C@@H]2O[C@H](CO)[C@@H](O)[C@H](O)[C@H]2O[C@H]2C[C@](C)(N)[C@H](O)[C@H](C)O2)Oc2ccc(cc2Cl)[C@H]1O measured_parameter=MIC observed_measurement="2 µg/mL"
